System: velvetleaf (Abutilon theophrasti)
ASSAY REMARKS: Test G Pre-Emergence Protocol
Type: in vivo
RUN CONDITIONS: Abutilon theophrasti, pre-emergence, 312 h, 250 g ai/ha, evaluated after 13 days, read-out: Velvetleaf damage rating (100=total damage to plant; 0=no damage to plant)
Listed compounds paired with reported pest or weed control at 250 g/ha
# do not omit the unit; it follows the number

Study these solved cases before continuing.
{"COMPOUND": "Cc1nc(F)ccc1NC(=O)[C@@H]1C(=O)N(C)C[C@H]1c1ccc(C(F)(F)F)cc1 (racemic)", "SYSTEM": "velvetleaf (Abutilon theophrasti)", "MEAS VALUE": "10%"}
{"COMPOUND": "CN1C[C@H](c2ccc(F)c(F)c2)[C@@H](C(=O)Nc2cnccc2C(F)(F)F)C1=O (racemic)", "SYSTEM": "velvetleaf (Abutilon theophrasti)", "MEAS VALUE": "50%"}
{"COMPOUND": "CN1C[C@@H](c2ccc(C(F)(F)F)cc2)[C@H](C(=O)Nc2ccc(F)c(F)c2Cl)C1=O (racemic)", "SYSTEM": "velvetleaf (Abutilon theophrasti)", "MEAS VALUE": "20%"}

Which pest or weed control at 250 g/ha is reported for this compound? COc1ccc(CNC(=O)[C@H]2C(=O)N(C)C[C@@H]2c2ccc(C(F)(F)F)cc2)c(OC)c1 (racemic)
10%

Which pest or weed control at 250 g/ha is reported for this compound? CN1C[C@H](c2ccc(C(F)(F)F)cc2)[C@@H](C(=O)Nc2ccc[n+]([O-])c2F)C1=O (racemic)
0%

Which pest or weed control at 250 g/ha is reported for this compound? CN1C[C@@H](c2ccc(C(F)(F)F)cc2)[C@@](O)(C(=O)Nc2cccc(F)c2F)C1=O (racemic)
0%

Which pest or weed control at 250 g/ha is reported for this compound? CN1C[C@H](c2ccc3ccccc3c2)[C@@H](C(=O)Nc2cccc(F)c2F)C1=O (racemic)
0%

Which pest or weed control at 250 g/ha is reported for this compound? CCOC(=O)c1cccc([C@H]2CN(C)C(=O)[C@@H]2C(=O)Nc2ccccc2F)c1 (racemic)
0%

Which pest or weed control at 250 g/ha is reported for this compound? Cc1cc(NC(=O)[C@@H]2C(=O)N(C)C[C@H]2c2ccc(C(F)(F)F)cc2)ccc1F (racemic)
0%

Which pest or weed control at 250 g/ha is reported for this compound? COc1ccc([C@H]2CN(C)C(=O)[C@@H]2C(=O)Nc2ccccc2F)c(C)c1 (racemic)
0%

Which pest or weed control at 250 g/ha is reported for this compound? Cc1c(F)cccc1NC(=O)[C@@H]1C(=O)N(C)C[C@H]1c1cc(Cl)c(F)c(Cl)c1 (racemic)
0%

Which pest or weed control at 250 g/ha is reported for this compound? CN1C[C@@H](c2ccc(C(F)(F)F)cc2)[C@H](C(=O)Nc2n[nH]c(C(F)(F)F)n2)C1=O (racemic)
0%

Which pest or weed control at 250 g/ha is reported for this compound? CN1C[C@H](c2ccc(C(F)(F)F)cc2)[C@@H](C(=O)Nc2ccc(F)c(Cl)c2)C1=O (racemic)
0%

Which pest or weed control at 250 g/ha is reported for this compound? Cc1cc([C@@H]2CN(C)C(=O)[C@H]2C(=O)Nc2cccc(F)c2F)cc(Cl)n1 (racemic)
10%

The origin of these recorded values is patent US12077503B2.
